Tested on: large crabgrass
protocol_notes: Test C pre-/postemergence herbicide test
Type: in vivo, Digitaria sanguinalis
protocol_conditions: 125 g ai/ha; preemergence
// Plant response rating (0 = no effect, 100 = complete control), Crabgrass, Large lookup, one value per entry

A selection of reference data follows.
CCc1nn(C(C)(C)C)nc1C(=O)Nc1cccc(C(=S)N(C)C)c1
100
CCC1=NN(C(C)(C)C)CC1C(=O)Nc1cc(C(=O)N(C)C)ccc1F (racemic)
80
CCOC(=O)c1cccc(NC(=O)c2nn(C(C)(C)CC)nc2CC)c1
70

Alright, here's another molecule for you.
// recorded Plant response rating (0 = no effect, 100 = complete control), Crabgrass, Large for `CCc1nn(C(C)(C)C)nc1C(=O)Nc1cccc(C(=O)N(C)CC)c1` : 100

====

Test system: bermudagrass
protocol_notes: Test C pre-/postemergence herbicide test
Type: in vivo, Cynodon dactylon
protocol_conditions: 250 g ai/ha; scale 0-100; preemergence
Source text: […]
// Plant response rating, Bermudagrass lookup, one value per entry
No unit in the answer, please; the number alone is enough.

A selection of reference data follows.
CCN(C)C(=O)c1ccc(F)c(NC(=O)C2CC(C(C)(C)C)=NN2CC)c1 (racemic)
100
CCc1nn(C(C)(C)C)nc1C(=O)Nc1cccc(C(=S)N(C)C)c1
100

// recorded Plant response rating, Bermudagrass for `CCNC(=O)c1cccc(NC(=O)c2sc(C(C)(C)C)nc2C)c1` : 100

// recorded Plant response rating, Bermudagrass for `CCn1nc(C(C)(C)C)cc1C(=O)Nc1cc(C(=S)N(C)C)ccc1F` : 90

// recorded Plant response rating, Bermudagrass for `CCn1nc(C2(C)CC2)cc1C(=O)Nc1cc(C(=O)N(C)C)ccc1F` : 100

====

Test system: large crabgrass
protocol_notes: Test B pre-/postemergence herbicide test
Type: in vivo, Digitaria sanguinalis
protocol_conditions: Preemergence, 500 g ai/ha; scale 0 to 100
// Crabgrass, Large plant response rating lookup, one value per entry
No unit in the answer, please; the number alone is enough.

// recorded Crabgrass, Large plant response rating for CCn1nc(C(C)(C)C)cc1C(=O)Nc1cccc2c1CCN(C1CC1)C2=O [Compound 64] : 100

// recorded Crabgrass, Large plant response rating for CCN(CC)C(=O)c1cc(NC(=O)c2cc(C(C)(C)C)nn2CC)ccc1F [Compound 59] : 20

// recorded Crabgrass, Large plant response rating for C#CCn1nc(C(C)(C)C)cc1C(=O)Nc1cccc(C(=O)NCC)c1 [Compound 50] : 90

// recorded Crabgrass, Large plant response rating for C=Cn1nc(C(C)(C)C)cc1C(=O)Nc1cccc(C(=O)NCC)c1 [Compound 33] : 100

// recorded Crabgrass, Large plant response rating for CCNC(=O)c1cc(NC(=O)c2cc(C(C)(C)C)nn2CC)ccc1C [Compound 68] : 0

====

System: cocklebur
protocol_notes: Test B pre-/postemergence herbicide test
Format: in vivo, Xanthium strumarium
protocol_conditions: postemergence, 500 g ai/ha; scale 0 to 100, 0 is no effect, 100 is complete control
reported_property: Cocklebur plant response rating
No unit in the answer, please; the number alone is enough.

CCc1nn(C(C)(C)C)nc1C(=O)Nc1cccc(C(=O)N(C)CC)c1 [Compound 384]
40
CCn1nc(C(C)(C)C)cc1C(=O)Nc1cc(OC)ccc1F [Compound 347]
0

// recorded Cocklebur plant response rating for CCNC(=O)c1ccc(F)c(NC(=O)c2nn(C(C)(C)C)nc2CC)c1 [Compound 362] : 30

// recorded Cocklebur plant response rating for CCn1nc(C(C)(C)C)cc1C(=O)Nc1cc(OC)ccc1OC [Compound 297] : 0
